The entries below are paired with their reported pKd.
- TARGET_OR_SYSTEM: T1, human myostatin (mature, recombinant; R&D Systems) (human, UniProt O14793 267-375)
- T1 construct: biotinylated in the mRNA display selection; also called GDF-8; mature myostatin
- T1 sequence: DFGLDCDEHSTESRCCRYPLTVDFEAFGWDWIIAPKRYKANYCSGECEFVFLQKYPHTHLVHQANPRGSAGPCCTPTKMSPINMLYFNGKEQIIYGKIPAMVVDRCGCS
- PROCEDURE_TEXT: SPR format A, 25C
The meaning of pKd here: minus log10 of the concentration in molar units.

ATI-1278 [40K 2-branch PEG] (designed binder, 40K 2-branch PEG on the Cys of the EGSGC tail, cysteine mutant of 2525_D05) MGVSDVPRDLEVVAATPTSLLISWSLPYAGHLNYYRITYGETGGNSPVQEFTVPGRGVTATISGLKPGVDYTITVYAVTLTKSQLIHYMPISINYRTEGSGCHHHHHH; 8.22

Query: Please report pKd for the following binder: ATI-1277 [N-ethylmaleimide] (designed binder, N-ethylmaleimide on the Cys of the EGSGC tail, cysteine mutant of 2525_D05) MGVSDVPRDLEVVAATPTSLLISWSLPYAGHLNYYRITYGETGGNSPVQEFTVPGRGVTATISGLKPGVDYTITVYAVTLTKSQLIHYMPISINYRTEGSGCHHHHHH
Result: 9.80
